From: the kinase profiling compilation of Christmann-Franck et al. (2016)

Target: SBK1 (human) (UniProt Q52WX2)
Sequence (Q52WX2 whole entry, looked up): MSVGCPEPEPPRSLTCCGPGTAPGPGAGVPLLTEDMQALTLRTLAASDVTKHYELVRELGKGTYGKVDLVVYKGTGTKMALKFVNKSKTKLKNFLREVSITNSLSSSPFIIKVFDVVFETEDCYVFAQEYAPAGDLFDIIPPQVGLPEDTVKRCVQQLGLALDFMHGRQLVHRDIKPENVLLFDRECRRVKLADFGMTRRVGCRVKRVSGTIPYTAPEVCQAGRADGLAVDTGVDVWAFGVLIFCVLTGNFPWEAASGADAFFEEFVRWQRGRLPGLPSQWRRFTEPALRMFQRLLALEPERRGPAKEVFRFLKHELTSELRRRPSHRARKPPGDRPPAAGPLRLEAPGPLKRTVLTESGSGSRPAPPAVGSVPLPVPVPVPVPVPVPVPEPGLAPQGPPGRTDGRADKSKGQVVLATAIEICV
Experiment: KINOMEscan competition binding
Settings: compound 10.0 µM
property_label: kinase still bound, per cent of control (%)
One number for each entry, in %.

Worked set:
# entry_smiles, unit_symbol, reported_measurement
rows = [
    ("CCCS(=O)(=O)Nc1ccc(F)c(C(=O)c2c[nH]c3ncc(Cl)cc23)c1F", "%", 92),
    ("COc1cc2c(Nc3ccc(NC(=O)c4ccccc4)cc3)ncnc2cc1OCCCN1CCOCC1", "%", 92),
    ("CCOc1cc(N2CCC(O)CC2)ccc1Nc1ncc2c(n1)N(C)c1ccccc1C(=O)N2C", "%", 100),
    ("O=c1[nH]c2ccccc2n1C1CCN(Cc2ccc(-c3nc4cc5[nH]cnc5cc4nc3-c3ccccc3)cc2)CC1", "%", 92),
    ("COc1cc2ncnc(Nc3cccc(Cl)c3)c2cc1OC", "%", 25),
    ("CCN(CCO)CCCOc1ccc2c(Nc3cc(CC(=O)Nc4cccc(F)c4)[nH]n3)ncnc2c1", "%", 100),
    ("CNC(=O)Nc1ccc(-c2nc(N3CC4CCC(C3)O4)c3cnn(C4CCC5(CC4)OCCO5)c3n2)cc1", "%", 100),
]

Lab note: next molecule to report on.
Write down kinase still bound, per cent of control measured for item C=CC(=O)Nc1ccc(C(=O)c2sc(Nc3ccc(N4CCN(C)CC4)cc3OC)nc2N)cc1
85
